Percent RBC Binding to CD33 reference
Target: T1, human CD33 Fc fusion protein (human, UniProt P20138 18-259)
T1 construct: also called hCD33-Fc; human CD33/Fc chimera (R&D Systems)
T1 sequence (P20138 18-259 limits assumed): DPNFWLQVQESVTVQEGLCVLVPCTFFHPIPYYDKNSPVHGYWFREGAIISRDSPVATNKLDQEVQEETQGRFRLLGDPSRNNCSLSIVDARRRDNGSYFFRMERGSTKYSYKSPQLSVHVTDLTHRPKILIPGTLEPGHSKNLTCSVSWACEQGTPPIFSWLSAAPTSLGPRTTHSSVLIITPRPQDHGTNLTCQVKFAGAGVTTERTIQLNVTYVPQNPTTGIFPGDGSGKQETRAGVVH
Assay: RBC adhesion to plate-bound CD33-Fc; antibody 1.0 ug/ml;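 further: red blood cells adhering to plate-coated CD33-Fc after 1 h antibody pretreatment, then 1 h at room temperature, bound cells read as peroxidase activity after lysis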
State just the number; it will be interpreted in %.

Here are 3 binders together with their reported answers.
binder: C-39 (antibody, V domains shown, human IgG1) VH: QLQLQESGPGLVKPSETLSLTCTVSGGSISSSSYYWGWIRQPPGKGLEWIGSIYYSGSTYYNPSLKSRVTISVDTSKNQFSLKLSSVTAADTAVYYCAREGVRGMDVWGQGTTVTVSS VL: EIVLTQSPGTLSLSPGERATLSCRASQSVSSSYLAWYQQKPGQAPRLLIYGASSRATGIPDRFSGSGSGTDFTLTISRLEPEDFAVYYCQQFAFLPPTFGGGTKVEIK
endpoint-value: 5.11
--
binder: C-34 (antibody, V domains shown, human IgG1) VH: EVQLVESGGGLVQPGGSLRLSCAASGFTFSSYWMSWVRQAPGKGLEWVANINQDGSEKYYVDSVKGRFTISRDNAKNSLYLQMNSLRAEDTAVYYCARDHGATGPDFDLWGRGTLVTVSS VL: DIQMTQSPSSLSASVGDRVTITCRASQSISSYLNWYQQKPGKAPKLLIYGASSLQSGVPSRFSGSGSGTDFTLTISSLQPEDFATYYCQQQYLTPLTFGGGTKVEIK
endpoint-value: 9.86
--
binder: C-23 (antibody, V domains shown, human IgG1) VH: QVQLQESGPGLVKPSETLSLTCAVSGYSISSGYYWGWIRQPPGKGLEWIGTIYHSGSTYYNPSLKSRVTISVDTSKNQFSLKLSSVTAADTAVYYCAREVGVVGALPYFDYWGQGTLVTVSS VL: DIQMTQSPSSLSASVGDRVTITCRASQSISSYLNWYQQKPGKAPKLLIYGASSLQSGVPSRFSGSGSGTDFTLTISSLQPEDFATYYCQQASSSPPTFGGGTKVEIK
endpoint-value: 8.42

Enquiry: State, in one line, measured Percent RBC Binding to CD33 of C-16 (antibody, V domains shown, human IgG1) VH: EVQLVESGGGLVQPGGSLRLSCAASGFTFSSYWMSWVRQAPGKGLEWVANINQDGSEKYYVDSVKGRFTISRDNAKNSLYLQMNSLRAEDTAVYYCAREGSDRHPFDYWGQGTLVTVSS VL: DIQMTQSPSSLSASVGDRVTITCRASQSISSYLNWYQQKPGKAPKLLIYAASSLQSGVPSRFSGSGSGTDFTLTISSLQPEDFATYYCQQAYLVPLTFGGGTKVEIK
Return: 7.69

Enquiry: Answer with the recorded Percent RBC Binding to CD33 of C-41 (antibody, V domains shown, human IgG1) VH: QLQLQESGPGLVKPSETLSLTCTVSGGSISSSSYYWGWIRQPPGKGLEWIGSISYSGSTYYNPSLKSRVTISVDTSKNQFSLKLSSVTAADTAVYYCAREGGKGMDVWGQGTLVTVSS VL: EIVLTQSPGTLSLSPGERATLSCRASQSVSSSFLAWYQQKPGQAPRLLIYGASSRATGIPDRFSGSGSGTDFTLTISRLEPEDFAVYYCQQFGDLPTFGGGTKVEIK only.
Return: 8.19

Enquiry: Note down Percent RBC Binding to CD33 recorded for C-63 (antibody, V domains shown, human IgG1) VH: QVQLVQSGAEVKKPGSSVKVSCKASGGTFSSYAISWVRQAPGQGLEWMGSIIPIFGTANYAQKFQGRVTITADESTSTAYMELSSLRSEDTAVYYCARDLGGQYYGSHHYWGQGTLVTVSS VL: EIVLTQSPATLSVSPGERATLSCRASQSVGSNLAWYQQKPGQAPRLLIYGASTRATGIPARFSGSGSGTEFTLTISSLQSEDFAVYYCQQYNAWPLTFGGGTKVEIK
Return: 5.66

Enquiry: Respond only with Percent RBC Binding to CD33 recorded for C-26 (antibody, V domains shown, human IgG1) VH: QLQLQESGPGLVKPSETLSLTCTVSGGSISSNSYYWGWIRQPPGKGLEWIGSIYYSGSTYYNPSLKSRVTISVDTSKNQFSLKLSSVTAADTAVYYCARSPVYYDSSGYFQYYGMDVWGQGTTVTVSS VL: EIVLTQSPATLSLSPGERATLSCRASQSVSSYLAWYQQKPGQAPRLLIYDASKRATGIPARFSGSGSGTDFTLTISSLEPEDFAVYYCQQSIVWPPFTFGGGTKVEIK
Return: 15.2

Enquiry: Supply Percent RBC Binding to CD33 value. Item: C-38 (antibody, V domains shown, human IgG1) VH: QLQLQESGPGLVKPSETLSLTCTVSGGSISSSSYYWGWIRQPPGKGLEWIGSIYYSGSTYYNPSLKSRVTISVDTSKNQFSLKLSSVTAADTAVYYCAREATAAADHPGMDVWGQGTTVTVSS VL: DIQMTQSPSSLSASVGDRVTITCQASQDITNYLNWYQQKPGKAPKLLIYDASNLETGVPSRFSGSRSGTDFTFTISSLQPEDIATYYCQQYHDFPTFGGGTKVEIK
Return: 10.3
